Target: RNA-directed RNA polymerase (Hepacivirus hominis)
Sequence (O39930 whole entry): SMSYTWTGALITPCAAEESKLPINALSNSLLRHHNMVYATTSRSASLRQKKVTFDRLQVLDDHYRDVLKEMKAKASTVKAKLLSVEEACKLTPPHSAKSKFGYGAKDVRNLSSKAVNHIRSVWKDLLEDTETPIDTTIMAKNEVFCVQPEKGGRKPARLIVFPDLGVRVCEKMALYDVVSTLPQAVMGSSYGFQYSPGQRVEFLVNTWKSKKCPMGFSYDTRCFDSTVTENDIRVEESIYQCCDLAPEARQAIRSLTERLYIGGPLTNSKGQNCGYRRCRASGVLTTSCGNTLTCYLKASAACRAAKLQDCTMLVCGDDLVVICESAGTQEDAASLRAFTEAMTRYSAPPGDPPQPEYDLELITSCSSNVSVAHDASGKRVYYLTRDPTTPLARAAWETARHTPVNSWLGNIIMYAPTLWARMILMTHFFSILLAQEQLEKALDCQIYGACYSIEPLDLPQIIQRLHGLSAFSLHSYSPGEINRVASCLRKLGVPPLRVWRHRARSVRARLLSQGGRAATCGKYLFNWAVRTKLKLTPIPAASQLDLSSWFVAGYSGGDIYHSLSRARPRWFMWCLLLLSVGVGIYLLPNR
Experiment: Inhibition of HCV 1a NS5B RNA polymerase
pIC50: −log10 of the molar value.
Reported pIC50 values follow for various molecules
Endpoint Name: pIC50

1. CC(C)CCn1c(=O)c(C2=Nc3ccc(NS(=O)(=O)NC(=O)OCCC#N)cc3S(=O)(=O)N2)c(O)c2cccnc21 = 7.46
2. CC(C)CCn1c(=O)c(C2=Nc3ccc(NS(=O)(=O)NCCC(N)=O)cc3S(=O)(=O)N2)c(O)c2cccnc21 = 7.70
3. COCCOC(=O)NS(=O)(=O)Nc1ccc2c(c1)S(=O)(=O)NC(c1c(O)c3cccnc3n(CCC(C)C)c1=O)=N2 = 7.06
4. COC(=O)NS(=O)(=O)Nc1ccc2c(c1)S(=O)(=O)N=C(c1c(O)c3cccnc3n(CCC(C)C)c1=O)N2 = 7.20
5. CC(C)CCn1c(=O)c(C2=Nc3ccc(NS(=O)(=O)Nc4ccc(C(N)=O)cc4)cc3S(=O)(=O)N2)c(O)c2cccnc21 = 7.74
6. CC(C)CCn1c(=O)c(C2=Nc3ccc(NS(=O)(=O)NCCN)cc3S(=O)(=O)N2)c(O)c2cccnc21 = 8.00
7. C#CCOC(=O)NS(=O)(=O)Nc1ccc2c(c1)S(=O)(=O)N=C(c1c(O)c3cccnc3n(CCC(C)C)c1=O)N2 = 7.14
8. COc1cccc(CNS(=O)(=O)Nc2ccc3c(c2)S(=O)(=O)NC(c2c(O)c4cccnc4n(CCC(C)C)c2=O)=N3)c1 = 7.82
9. CC(C)CCn1c(=O)c(C2=Nc3ccc(NS(=O)(=O)NC(=O)OCCN)cc3S(=O)(=O)N2)c(O)c2cccnc21 = 7.68
10. CC(C)CCn1c(=O)c(C2=NS(=O)(=O)c3cc(NS(C)(=O)=O)ccc3N2)c(O)c2cccnc21 = 8.62
11. CC(C)CCn1c(=O)c(C2=Nc3ccc(NS(=O)(=O)NC(=O)OCCCl)cc3S(=O)(=O)N2)c(O)c2cccnc21 = 6.72
12. CC(C)CCn1c(=O)c(C2=NS(=O)(=O)c3cc(NS(N)(=O)=O)ccc3N2)c(O)c2cccnc21 = 8.05
13. CC(C)CCn1c(=O)c(C2=NS(=O)(=O)c3cc(NS(=O)(=O)Nc4ccc(C(=O)O)cc4)ccc3N2)c(O)c2cccnc21 = 7.70
14. CNS(=O)(=O)Nc1ccc2c(c1)S(=O)(=O)NC(c1c(O)c3cccnc3n(CCC(C)C)c1=O)=N2 = 7.85
15. CC(C)CCn1c(=O)c(C2=Nc3ccc(NS(=O)(=O)NC(=O)OCC(=O)O)cc3S(=O)(=O)N2)c(O)c2cccnc21 = 7.30
16. CNS(=O)(=O)Nc1ccc2c(c1)S(=O)(=O)NC(c1c(O)c3ccccc3n(NC3CCC3)c1=O)=N2 = 8.06
17. CC(C)CCn1c(=O)c(C2=Nc3ccc(NS(=O)(=O)Nc4cccc(C(=O)O)c4)cc3S(=O)(=O)N2)c(O)c2cccnc21 = 6.94
18. CC(C)CCn1c(=O)c(C2=Nc3ccc(NS(=O)(=O)NC4CCCC4)cc3S(=O)(=O)N2)c(O)c2cccnc21 = 7.41
19. COC(=O)c1ccccc1NS(=O)(=O)Nc1ccc2c(c1)S(=O)(=O)NC(c1c(O)c3cccnc3n(CCC(C)C)c1=O)=N2 = 6.89
20. CC(C)CCn1c(=O)c(C2=NS(=O)(=O)c3cc(NS(=O)(=O)N(C)C(=O)OCc4ccccc4)ccc3N2)c(O)c2cccnc21 = 6.92
